biological target: T1, cSNK:BSA conjugate (bovine, head-to-tail cyclized; conjugated to BSA carrier); assay: BLI 2:1 fit, site 1; 25 nM row
T1 construct: also called BSA-cSNK
T1 sequence (P02769 25-607 limits assumed): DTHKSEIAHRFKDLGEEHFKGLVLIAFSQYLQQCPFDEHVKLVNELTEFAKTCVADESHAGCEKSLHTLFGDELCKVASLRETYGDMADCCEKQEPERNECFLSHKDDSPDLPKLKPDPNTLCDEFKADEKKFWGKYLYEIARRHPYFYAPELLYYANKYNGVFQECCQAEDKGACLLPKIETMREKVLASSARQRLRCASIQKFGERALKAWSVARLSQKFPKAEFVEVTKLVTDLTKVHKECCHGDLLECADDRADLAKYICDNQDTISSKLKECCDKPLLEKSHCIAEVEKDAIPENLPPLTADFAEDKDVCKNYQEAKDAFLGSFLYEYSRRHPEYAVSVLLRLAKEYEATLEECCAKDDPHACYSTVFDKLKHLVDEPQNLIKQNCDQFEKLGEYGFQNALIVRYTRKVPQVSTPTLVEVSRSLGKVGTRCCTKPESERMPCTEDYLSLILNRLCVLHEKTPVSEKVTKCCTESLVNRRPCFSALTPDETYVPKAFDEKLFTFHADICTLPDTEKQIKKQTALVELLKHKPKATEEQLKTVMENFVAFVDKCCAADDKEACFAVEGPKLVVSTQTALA
Readout Label: koff (s⁻¹)
Numbers only; they are read as s⁻¹.

Prompt: Return reported koff; argument: hu5E3-IgG1 (antibody, V domains shown, human IgG1/kappa; also called humanized 5E3 IgG1; IHA variant) VH: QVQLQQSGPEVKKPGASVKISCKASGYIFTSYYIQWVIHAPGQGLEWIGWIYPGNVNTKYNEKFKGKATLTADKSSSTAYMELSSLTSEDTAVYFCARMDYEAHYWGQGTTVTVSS VL: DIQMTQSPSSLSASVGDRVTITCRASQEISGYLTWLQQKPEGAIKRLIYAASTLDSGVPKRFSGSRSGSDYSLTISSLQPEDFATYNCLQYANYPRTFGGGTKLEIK
Response: 0.000825
